Assay: in vivo
Conditions: Sprague-Dawley, rat, iv, 1 mg/mg
Measured Parameter: clearance (L/h/kg)

CC(C)(C)c1cc(NC(=O)Nc2ccc(-n3nc(-c4ccc(OCCN5CCOCC5)cc4)c4c(N)ncnc43)cc2)no1	0.00207
CC(C)(C)c1cc(NC(=O)Nc2ccc(-c3cn4c(n3)sc3cc(OCCN5CCOCC5)ccc34)cc2)no1 [QUIZARTINIB]	0.561

====

Assay: in vivo
Settings: Sprague-Dawley, rat, po, 10 mg/mg
Measured Parameter: bioavailability (%)

CC(C)(C)c1cc(NC(=O)Nc2ccc(-c3cn4c(n3)sc3cc(OCCN5CCOCC5)ccc34)cc2)no1 [QUIZARTINIB]	75.9
CC(C)(C)c1cc(NC(=O)Nc2ccc(-n3nc(-c4ccc(OCCN5CCOCC5)cc4)c4c(N)ncnc43)cc2)no1	18.8
